Data origin: paper PMC10709652

# Target Of Assay: Srs2 898 H650A (Saccharomyces cerevisiae, UniProt P12954 1-898, H650A)
# Sequence (P12954 1-898 H650A): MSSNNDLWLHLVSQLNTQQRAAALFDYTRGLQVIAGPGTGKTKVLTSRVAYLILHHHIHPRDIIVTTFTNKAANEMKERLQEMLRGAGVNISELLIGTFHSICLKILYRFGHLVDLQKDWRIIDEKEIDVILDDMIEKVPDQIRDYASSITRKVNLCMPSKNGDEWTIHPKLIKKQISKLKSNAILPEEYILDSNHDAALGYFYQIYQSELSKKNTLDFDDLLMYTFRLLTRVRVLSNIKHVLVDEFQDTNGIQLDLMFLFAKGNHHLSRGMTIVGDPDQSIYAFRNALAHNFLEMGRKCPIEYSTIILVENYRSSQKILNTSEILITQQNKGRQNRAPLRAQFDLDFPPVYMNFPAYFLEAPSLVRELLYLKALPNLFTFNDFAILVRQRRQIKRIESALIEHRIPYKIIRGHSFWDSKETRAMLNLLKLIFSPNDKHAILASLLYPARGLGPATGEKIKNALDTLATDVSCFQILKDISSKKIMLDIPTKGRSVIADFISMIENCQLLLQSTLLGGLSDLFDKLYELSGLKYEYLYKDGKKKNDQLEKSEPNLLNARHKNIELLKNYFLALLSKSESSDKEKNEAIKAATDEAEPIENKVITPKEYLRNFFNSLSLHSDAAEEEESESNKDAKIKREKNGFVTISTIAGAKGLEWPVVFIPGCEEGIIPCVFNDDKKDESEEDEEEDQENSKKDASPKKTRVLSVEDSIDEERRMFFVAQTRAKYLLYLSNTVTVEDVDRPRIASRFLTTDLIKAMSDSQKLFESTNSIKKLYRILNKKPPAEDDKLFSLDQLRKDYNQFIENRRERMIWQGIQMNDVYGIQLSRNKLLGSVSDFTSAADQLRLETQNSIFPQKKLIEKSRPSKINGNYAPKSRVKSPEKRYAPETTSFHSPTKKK
# Assay Details: EMSA; no ATP; 30 mM Tris-HCl pH 7.6, 100 mM KCl, 2 mM MgCl2, 1 mM DTT, 0.2 mg/mL BSA, 30 °C 10 min, no ATP; 1.3 µM (nucleotides) ssDNA, 10-100 nM protein; 10% native PAGE in
# Condition Notes: protein: recombinant; tags: N-terminal GFP; label: 5' fluorescein

Binder | Kd / nM
ATTAAGCTCTAAGCCATGAATTCAAATGACCTCTTATCAA (ssDNA) [40-nt ssDNA] | 46
